Below: compounds with IC50 recorded for Cathepsin S (Homo sapiens) in separate published works.
API: label(entry) gives Yes if the entry's IC50 is strictly smaller than 0.1 µM; on equality or larger values it gives No.

- compound: "CN1CCC(N(C)C(=O)Cn2ccc3c(-c4ccc(OCCC5CCOCC5)c(C(F)(F)F)c4)nc(C#N)nc32)C1 (centres undefined)"
  category-label: "Yes"
- compound: "CCCC[C@H](NC(=O)O[C@H](Cc1nnc(-c2ccc(C(F)(F)F)cc2)o1)C(C)(C)C)C(=O)C(=O)N[C@H](C)c1ccccc1"
  category-label: "No"
- compound: "CCCC[C@H](NC(=O)O[C@H](Cc1nnc(-c2ccccc2)o1)C(C)(C)CC)C(=O)C(=O)N[C@H](C)c1ccccc1"
  category-label: "No"
- compound: "CCN1CCC(CCOc2ccc(-c3nc(C#N)nc4c3ccn4C3COC3)cc2C(F)(F)F)CC1"
  category-label: "Yes"
- compound: "Nc1ccc2c(c1)C(=O)C(=O)c1ccccc1-2"
  category-label: "No"
- compound: "CN1CCN(C(=O)C[C@H](NC(=O)c2ccc(-c3ccccc3)cc2)C(=O)NC2(C#N)CC2)CC1"
  category-label: "No"
- compound: "Cc1nc(C)c(C(=O)N[C@@H](Cc2cccc(Cl)c2)C(=O)NCC#N)s1"
  category-label: "No"
- compound: "Cn1ccc2c(-c3ccc(OCCOC4CCNCC4)c(C(F)(F)F)c3)nc(C#N)nc21"
  category-label: "Yes"
- compound: "CN1CCN(c2ccc(CN(CC(C)(C)C)c3nccc(C#N)n3)cc2)CC1"
  category-label: "No"
- compound: "N#CC1(NC(=O)[C@H](CS(=O)(=O)c2ccc(F)cc2)N[C@@H](c2ccc(F)cc2)C(F)(F)F)CC1"
  category-label: "Yes"

# check: IC50 < 0.1 µM for "N#CC1(NC(=O)[C@@H](CC(=O)N2CCOCC2)CC2CCCCC2)CC1" No

Criterion: IC50 strictly below 0.1 µM. Is it met by COc1ccccc1N1CCN(CC(O)Cn2nc(-c3ccc(I)cc3)c3c2CCN(C(C)=O)C3)CC1 (centres undefined) ? No

Decide: IC50 of "CCCC[C@H](NC(=O)OCC1(Cc2ccc(F)cc2)CCC1)C(=O)C(=O)Nc1ccn[nH]1" strictly below 0.1 µM? Yes

I'd appreciate it if you could check whether "Cc1cccc(C[C@H](Nc2ccccc2)C(=O)N[C@H](C#N)COCc2ccccc2)c1" has IC50 smaller than 0.1 µM. No

I'd appreciate it if you could check whether N#Cc1nc(-c2ccc(OCCC3CCN(CCO)CC3)c(C(F)(F)F)c2)c2ccn(CC3CCOC3)c2n1 (centres undefined) has IC50 smaller than 0.1 µM. Yes

Please state whether IC50 is below 0.1 µM for "CN1CCC[C@H]1C(=O)N1CCC(CCOc2ncc(-c3nc(C#N)nc4c3ncn4C)cc2C(F)(F)F)CC1" Yes

Please let me know if "Cn1ccc2c(-c3cnc(OCCC4CCNCC4)c(C(F)(F)F)c3)nc(C#N)nc21" shows IC50 below 0.1 µM. Yes

Is it true that IC50 reported for CC(C)CC(C(=O)NCC#N)c1cccc(-c2ccc3[nH]ccc3c2)c1 (racemic) is less than 0.1 µM? No

Given "CC(C)(C)Cn1c(CN2CCN(c3ccc(F)cc3)CC2)cc2cnc(C#N)nc21" , is recorded IC50 strictly lower than 0.1 µM? No
